Assay: Inhibition of wild type Plasmodium falciparum IspD extracted from Escherichia coli BL21 (DE3)
Test readout: pIC50
Value format note: pIC50 is -log10 of concentration (mol/L); just state the number.

Query: Given the entry `O=C(O)[C@H]1Cc2c([nH]c3ccccc23)[C@@H](c2ccc(Cl)cc2Cl)N1` , report its measured pIC50.
Reply: 6.77

Query: Look up pIC50 for this compound: `O=C(O)[C@H]1Cc2c([nH]c3ccccc23)[C@H](c2ccc(Cl)cc2Cl)N1`
Reply: 7.33

Query: Using the record for `O=C(O)[C@@H]1Cc2c([nH]c3ccccc23)[C@@H](c2ccc(Cl)cc2Cl)N1` , report its pIC50.
Reply: 6.60
